System: HepG2
Assay: Antiproliferative activity against human HepG2 cells assessed as cell growth at 10 uM incubated for 48 hrs by MTT assay relative to control
Format: functional
Settings: read-out: Activity
Please respond with reported growth at 10 µM for every item in the list.
Express your answer in %, writing the number without its unit.

Prompt: Answer with the recorded growth at 10 µM for the compound listed here: CCCC(O)Cn1nc(Nc2cccc3ccccc23)c(C(=O)OCC)c1N (stereo not drawn)
Response: 104

Prompt: Please supply the value of reported growth at 10 µM for the item CCOC(=O)c1c(Nc2cccc3ccccc23)nn(CC(O)c2ccccc2)c1N (stereo not drawn)
Response: 118

Prompt: Fill in reported growth at 10 µM for this entry: CCCC(O)Cn1nc(Nc2ccccc2Cl)c(C(=O)OCC)c1N (stereo not drawn)
Response: 119

====

Assay: Antiproliferative activity against human HUVEC cells assessed as cell growth at 10 uM incubated for 48 hrs by MTT assay relative to control
Assay type: toxicity, cell-based
Conditions: read-out: Activity
quantity_measured: viability at 48 h, 10 µM (%)
Please reply with the bare figure in % and do not write the unit itself.

Prompt: Give recorded viability at 48 h, 10 µM. CCOC(=O)c1c(Nc2ccccc2Cl)nn(CC(O)c2ccccc2)c1N (stereo not drawn)
Response: 93

Prompt: Specify measured viability at 48 h, 10 µM for CCOC(=O)c1c(Nc2cccc(C(F)(F)F)c2)nn(CC(O)c2ccccc2)c1N (stereo not drawn) .
Response: 92

Prompt: Please report the measured viability at 48 h, 10 µM for CCCC(O)Cn1nc(Nc2cccc(C(F)(F)F)c2)c(C(=O)OCC)c1N (stereo not drawn)
Response: 100

====

Tested on: HUVEC
Test: Anti-angiogenetic activity in human HUVEC cells assessed as relative tube length at 10 uM incubated for 12 hrs by microscopy
Format: functional
quantity_measured: Activity

Prompt: Look up and report Activity, with HUVEC as system, for CCOC(=O)c1c(Nc2cccc3ccccc23)nn(CC(O)c2ccccc2)c1N (stereo unspecified)
Response: <20

Prompt: Quote Activity with test system HUVEC for CCOC(=O)c1c(Nc2ccc(C)cc2)nn(CC(O)c2ccccc2)c1N (stereo unspecified)
Response: 48

Prompt: # lookup: HUVEC Activity, key = CCCC(O)Cn1nc(Nc2cccc3ccccc23)c(C(=O)OCC)c1N (stereo unspecified)
Response: <20

Prompt: // fetch Activity for CCCC(O)Cn1nc(Nc2ccccc2)c(C(=O)OCC)c1N (stereo unspecified) ; system: HUVEC
Response: <20

Prompt: Report Activity on HUVEC for this entry: CCCC(O)Cn1nc(Nc2ccc(C)cc2)c(C(=O)OCC)c1N (stereo unspecified)
Response: <20

Prompt: With HUVEC as the test system, provide measured Activity for this compound: CCCC(O)Cn1ncc(C(=O)OCC)c1NC(=O)Nc1cccc(C(F)(F)F)c1 (stereo unspecified)
Response: 21

====

Tested on: SK-MEL-28
Experiment: Antiproliferative activity against human SK-MEL-28 cells assessed as cell growth at 10 uM incubated for 48 hrs by MTT assay relative to control
Type: functional
Details: read-out: Activity
quantity_measured: growth at 10 µM (%)
State just the number; it will be interpreted in %.

Prompt: Quickly give me recorded growth at 10 µM for CCCC(O)Cn1nc(Nc2cccc(Cl)c2)c(C(=O)OCC)c1N (stereo unspecified)
Response: 122

Prompt: For the compound CCOC(=O)c1c(Nc2ccccc2Cl)nn(CC(O)c2ccccc2)c1N (stereo unspecified) , report growth at 10 µM.
Response: 136

Prompt: Determine its reported growth at 10 µM: CCOC(=O)c1c(Nc2ccc(OC)cc2)nn(CC(O)c2ccccc2)c1N (stereo unspecified)
Response: 134

Prompt: Identify measured growth at 10 µM corresponding to CCCC(O)Cn1nc(Nc2ccccc2Cl)c(C(=O)OCC)c1N (stereo unspecified)
Response: 132

Prompt: Provide measured growth at 10 µM value, entry: CCOC(=O)c1c(Nc2cccc3ccccc23)nn(CC(O)c2ccccc2)c1N (stereo unspecified)
Response: 141

Prompt: Report measured growth at 10 µM; entry is CCCC(O)Cn1nc(Nc2ccc(C)cc2)c(C(=O)OCC)c1N (stereo unspecified)
Response: 137
